- Test system: SF-539 CNS
- assay-explanation: NCI tumour cell line growth inhibition, 48 h
Some compounds, each annotated with its measured TGI.

Observe how each entry below is paired with its result.
CCOP(=O)(OCC)/C(C#N)=C/c1nc[nH]c1C    > 100 µM
Cc1ccc(N=NC(=Nc2ccc(F)cc2)c2ccc(N(CCC#N)CCC#N)cc2)cc1    > 100 µM
COc1cc2c(cc1OCCCCCOc1ccc(-c3nc4ccccc4s3)cc1)N=C[C@@H]1CCCN1C2=O    6.09 µM
Cc1cc2c(cc1Cl)SC(=Nc1ccc(Cl)cc1)N(S(=O)(=O)c1ccc(Br)s1)S2(=O)=O    9.93 µM
Cc1ccc(S(=O)(=O)N(CC(O)COc2ccccc2)c2c(F)c(F)c(F)c(F)c2F)cc1 (stereo not given)    34.4 µM

Q. Name the reported TGI value associated with the compound `CC1=NN(c2ccccc2)C(=O)/C1=C1\SC(c2ccccc2)(c2ccccc2)c2ccccc21`
A. > 100 µM

Q. Name the reported TGI value associated with the compound `O=C(O)c1ccccc1NS(=O)(=O)c1ccc(Cl)cc1`
A. > 100 µM

Q. Name the reported TGI value associated with the compound `O=C(O)c1c2c(c(O)c3c1CN(C1CCCCC1)CO3)OCN(C1CCCCC1)C2`
A. > 100 µM

Q. Name the reported TGI value associated with the compound `COc1ccc(-c2cc(=O)c3c(C)ccnc3[nH]2)cc1`
A. 72.2 µM

Q. Name the reported TGI value associated with the compound CC(C)(C)c1ccc(O)c(C(O)c2ccccn2)c1 (stereo not given)
A. > 100 µM

###

- Tested on: SNB-19 CNS
- assay-explanation: NCI tumour cell line growth inhibition, 48 h
measurement-label: TGI (µM)
# number only, unit µM dropped from output

CCCCCOC(=O)c1c(C)[nH]c(/C=C2\N=C(c3ccc[nH]3)C=C2OC)c1C    8.4
C[C@]12CC[C@H]3[C@@H](CC=C4C[C@@H](N5CCCC5)CC[C@@]43C)[C@@H]1C/C(=C\c1ccc([N+](=O)[O-])cc1)[C@@H]2O    59.2

Consider the additional compound presented here.
Q. Name the reported TGI value associated with the compound `O=C(O)CN(CCN(CC(=O)O)CC(=O)O)CCN(CC(=O)O)CC(=O)O`
A. 61.6

###

- Test system: SK-MEL-2 melanoma
- assay-explanation: NCI tumour cell line growth inhibition, 48 h
measurement-label: TGI

CCOP(=O)(OCC)/C(C#N)=C/c1nc[nH]c1C    > 100 µM
COc1cc2c(cc1OCCCCCOc1ccc(-c3nc4ccccc4s3)cc1)N=C[C@@H]1CCCN1C2=O    16.2 µM
CC(C)(Sc1cc(C(C)(C)C)c(O)c(C(C)(C)C)c1)Sc1cc(C(C)(C)C)c(O)c(C(C)(C)C)c1    > 100 µM
COCCn1c(Nc2ccc(C(=O)NO)cc2)nc2ccccc21    50.3 µM
NCCNCCNCc1c2ccccc2c(CNCCNCCN)c2ccccc12    > 100 µM
CCOc1cc(/C=C/C(=O)CC(=O)/C=C/c2ccc(OC(=O)CNc3nc4ccc(OC)cc4s3)c(OCC)c2)ccc1OC(=O)CNc1nc2ccc(OC)cc2s1    29.1 µM
CC[O-].CC[O-].[O-]c1ccccc1C=NC12CC3CC(CC(C3)C1)C2.[O-]c1ccccc1C=NC12CC3CC(CC(C3)C1)C2.[Ti+4]    > 100 µM
CCOc1ccc2c(c1)[n+]([O-])c(C(N)=O)c(N)[n+]2[O-]    > 100 µM
CCCCOc1ccc(/C=C/C2=[N+](CCO)CCO2)cc1    > 100 µM
CSC(=Nc1ccccc1)c1c(C)[nH]n(-c2ccccc2)c1=O    > 100 µM

Q. Name the reported TGI value associated with the molecule `O=S1(=O)[C@H](c2ccccc2)c2c(-c3ccccc3)sc(-c3ccccc3)c2[C@@H]1c1ccccc1`
A. > 100 µM

Q. Name the reported TGI value associated with the molecule `CN(C)c1ccc(-c2c(C#N)c(-c3ccccc3)n(NS(=O)(=O)c3ccccc3)c(=O)c2C#N)cc1`
A. > 100 µM

Q. Name the reported TGI value associated with the molecule `N#C/C=C(/NC(=O)Nc1ccccc1)N1CCCC1`
A. > 52.6 µM

Q. Name the reported TGI value associated with the molecule `N#CSc1c[nH]c2ccc(/C=C/C(=O)/C=C(O)/C=C/c3ccc4[nH]cc(SC#N)c4c3)cc12`
A. 12.3 µM

Q. Name the reported TGI value associated with the molecule `CN(C)C(=C1C(Br)=C(Br)C(Br)=C1Br)N(C)C`
A. > 100 µM
